// data source = the CheMixHub viscosity set

In this section we review reported viscosity values for a set of compounds.
settings: 318.15 K; 101 kPa
Observed Property: viscosity (mPa·s)

{"columns": ["Structure Notation", "Units Text", "Readout Number"],
 "data": [
  ["CCCCCCCCCCC", "mPa·s", 0.7937],
  ["N#C[C-](C#N)C#N.OCC[n+]1ccccc1", "mPa·s", 33.96],
  ["C=CCO", "mPa·s", 0.8419],
  ["CC(=O)[O-].CC[n+]1ccn(C)c1", "mPa·s", 44.15]
]}

###

Let's look at some compounds and their measured viscosity.
settings: 303.15 K; 101 kPa

{"columns": ["Structure Notation", "Units Text", "viscosity"],
 "data": [
  ["N#C[C-](C#N)C#N.OCC[n+]1ccccc1", "mPa·s", 71.78],
  ["OCCCO", "mPa·s", 33.7],
  ["C=CCO", "mPa·s", 1.122],
  ["CC(C)C#N", "mPa·s", 0.461]
]}
